The measurements presented in this section are drawn from patent US20170101466A1.

# assayed-target: T1, soluble cynomolgus BLyS (cynomolgus, UniProt A0A2K5V2X4 134-285)
# T1 construct: Soluble form; also called cyBLyS; Soluble cyBLyS
# protocol-text: ELISA, soluble cyBLyS
pIC50: −log10 of the molar value.

binder: 4A2 IgG expressed in HEK293 cells (antibody, V domains shown, IgG from HEK293-FreeStyle cells) VH: QVQLVQSGGGVVQPGRSLRLSCAASGFTFSSYGMHWVRQAPGKGLEWVAVISHDGSNKYYADSVKGRFTISRDNSKNTLYLQMNSLRAEDTAVYYCAKDRSYYDILTGYYIPYYYGMDVWGQGTTVTVSS VL: QAVLTQPPSASGTPGQKVTISCSGSSSDIGSNNVNWYQQFPGTAPKLLIHSNNLRPSGVPVRFSGSKSGTSASLAISGLQSEDEADYYCSAWDDSVNGVAFGGGTKLTVLG
pIC50: 8.84
--
binder: 9F8 IgG expressed in HEK293 cells (antibody, V domains shown, IgG from HEK293-FreeStyle cells) VH: QVQLQQSGAEVKKPGASVKVSCKASGYTFTSYYMHWVRQAPGQGLEWMGWINAGNGNTKYSQKFQGRVTITRDTSASTAYMELSSLRSEDTAVYYCARDNLSYDILTGYSFGGWFDPWGQGTLVTVSS VL: QSALTQPASVSGSPGQSITISCTGTSSDIGRYNYVSWYQQRPGRAPKVIIYDVSSRPSGVSKRFSASKSGNTASLTISGLQAEDEAVYYCSSYTRITTLYVFGPGTKVTVLG
pIC50: 10.15
--
binder: 6C10 IgG expressed in HEK293 cells (antibody, V domains shown, IgG from HEK293-FreeStyle cells; also called 6C10 (293)) VH: EVQLVQSGAEVKKPGASVKVSCKASGYTFTSYGISWVRQAPGQGLEWMGWISAYNGNTNYAQKLQGRVTMTTDTSTSTAYMELRSLRSDDTAVYYCARTYYDILTGYYYYYGMDVWGQGTTVTVSS VL: EIVLTQSPGTLSLSPGERAMLSCRASQSVGNYLAWYQQKPGQAPRLLIYDASNRATGIPARFSGSGSGTDFTLTINSLEPEDFAVYYCQQRSNWPLTFGGGTKVEIKR
pIC50: 10.00
